These entries and their values trace back to patent US20260242478A1.

Phage binding ELISA signal, Anti-PSMA Fab: recorded values
Biological target: T1, PSMA Fab (biotinylated (site not stated))
T1 construct: also called Anti-PSMA Fab; 006 PSMA Fab
Assay: clonal phage ELISA on biotinylated PSMA Fab captured on neutravidin plates, anti-M13 HRP detection;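 further: crude clonal phage supernatants tested, before phage were added, wells were pretreated with PSMA antigen in blocking buffer or with blocking buffer only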
Where no end group is shown, it is not given here.
Write the value as a bare number.

Prompt: Could you share which Phage binding ELISA signal, Anti-PSMA Fab value was measured for VGKWCTPEWMCSGF [Phage-2789] ?
Response: 0.6

Prompt: Could you share which Phage binding ELISA signal, Anti-PSMA Fab value was measured for VTNWCTPPWMCEML [Phage-2793] ?
Response: 0.596

Prompt: Could you share which Phage binding ELISA signal, Anti-PSMA Fab value was measured for TEKWCIPQWMCVRT [Phage-2794] ?
Response: 0.592

Prompt: Could you share which Phage binding ELISA signal, Anti-PSMA Fab value was measured for ESKWCVPTWMCAEN (cysteine pairing not given here; also: fused to pIII, displayed on bacteriophage) [Phage-2799] ?
Response: 0.583

Prompt: Could you share which Phage binding ELISA signal, Anti-PSMA Fab value was measured for FEKWCTPQWMCNSM [Phage-2795] ?
Response: 0.59

Prompt: Could you share which Phage binding ELISA signal, Anti-PSMA Fab value was measured for SVKWCTPSWMCTEW [Phage-2788] ?
Response: 0.601

Prompt: Could you share which Phage binding ELISA signal, Anti-PSMA Fab value was measured for TQHWCTPIWMCEGL [Phage-2792] ?
Response: 0.597

Prompt: Could you share which Phage binding ELISA signal, Anti-PSMA Fab value was measured for DYKWCTPPWMCDSR [Phage-2800] ?
Response: 0.58

Prompt: Could you share which Phage binding ELISA signal, Anti-PSMA Fab value was measured for TPKWCTPAWMCVVS [Phage-2802] ?
Response: 0.575

Prompt: Could you share which Phage binding ELISA signal, Anti-PSMA Fab value was measured for ERIWCTPKWMCETF [Phage-2797] ?
Response: 0.589
